biological target: T1, human LILRB4 (human, UniProt Q8NHJ6 22-259, limits assumed); test: flow cytometry on LILRB4-overexpressing 293T cells, mAb at 2 ug/ml
T1 construct: also called leukocyte immunoglobulin-like receptor subfamily B member 4
% of cells in the positive gate by entry:
Hi! Could you send only the number? It should be in %, unit omitted.

Consider the following illustrative entries.
Give a short answer stating reported % of cells in the positive gate for anti-LILRB4 mAb C53 (antibody, V domains shown, Mouse mAb) VH: EVNLEESGGGLVQPGGSMKLSCIASGFTFSNYWMNWVRQSPEKGLEWVAEIRLKYNNYATHYAESVKGRFTISRDDSKSTVYLQMNNLRAEDTGIYYCTGTRYGSSLDYWGQGTSVTVSS VL: DIVMSQSPSSLAVSVGEKVTMSCKSSQNLFYSTNQKNYLAWYQQKPGQSPKLLIYWASTRESGVPDRFTGSGSGTAFTLTISSVKAEDLAVYYCQQYYNYPLTFGAGTKLELK . 73.5

Give a short answer stating reported % of cells in the positive gate for anti-LILRB4 mAb C92 (antibody, V domains shown, Mouse mAb) VH: QIQLVQSGPELKKPGETVKISCKASGYTFTNYGMNWVKQAPGKGLKWMGWINTYTGEPTYADDFKGRFAFSLETSASTAYLQINNLKNEDMATYFCASIYYHTSLWYFDVWGAGTTVTVSS VL: DVVMTQTPLSLPVSLGDQASISCRSSQSLVHSNGNTYLHWYLQKPGQSPKLLIYKVSNRFSGVPDRFSGSGSGTDFTLKISRVEAEDLGVYFCSQSTHVPYTFGGGTKLEIK . 44.7

Continuing:
Give a short answer stating reported % of cells in the positive gate for anti-LILRB4 mAb C84 (antibody, V domains shown, Mouse mAb; also called anti-hLILRB4) VH: QIQLVQSGPELKKPGETVKISCKASGYTFTNYGMNWVKQAPGKGLKWMGWINTYTGEPTYADDFKGRFAFSLETSASTAYLQINNLKNEDMATYFCASIYYHTSLWYFDVWGAGTTVTVSS VL: DVLMTQTPLSLPVSLGDQASISCRSSQNIVHSNGNTYLEWYLQKPGQSPKLLIYRVSNRFSGVPVRFSGSGSGTDFTLKISRVEAEDLGVYYCFQGSHVPLTFGAGTKLELK . 62.5
